tested on: Hs-578T; test: NCI tumour cell line growth inhibition, 48 h
Calls of active or inactive are those of the source. Rule as the data show it: active = GI50 up to about 1.1 µM and inactive = higher.
Measured property: GI50

1. CCCc1c(O)c(=O)c2c(OC)cc(OC)c3c4c(OC)cc(OC)c5c(=O)c(O)c(CCC)c(c1c23)c54 : 0.468 µM (active)
2. O=c1c(Cl)nsnc1Cl : 30.2 µM (inactive)
3. COC(=O)[C@H](Cc1ccccc1)NC(=O)N1CCCN(C(=O)N[C@@H](Cc2ccccc2)C(=O)OC)CCCN(C(=O)N[C@@H](Cc2ccccc2)C(=O)OC)CCC1 : 20.7 µM (inactive)
4. CC12CP(=O)(c3ccccc3)CC1c1ccccc1C2c1ccccc1 (centres undefined) : 26.3 µM (inactive)
5. Cn1c(-c2ccc[se]2)ccc1-c1ccc(CO)[se]1 : 33 µM (inactive)
6. CC(C)=CC[C@H]1C[C@]2(CC=C(C)C)C(=O)[C@@](CC=C(C)C)(C(=O)C(C(=O)c3ccccc3)=C2O)C1(C)C [6-EPI-CLUSIANONE] : 14.3 µM (inactive)
7. CSc1ncnc2c1cnn2CCCCO : > 100 µM (inactive)
8. COC1C(O)=C2C(=O)O/C(C)=C/C=C/C=C/C=C\CC(c3ccccc3)NC(=O)\C=C/C=C\C=C\C=C\[C@@]2(C)[C@@H]1O (some centres undefined) : < 0.01 µM (active)

The recorded GI50 for entry CC(C)=CCN1CC(C)C(=O)Nc2ccccc21 (centres undefined) equals > 100 µM (inactive)

###

system: SN12C; assay: NCI tumour cell line growth inhibition, 48 h
Calls of active or inactive are those of the source. Rule as the data show it: active = GI50 up to about 1.1 µM and inactive = higher.
Form entry, call: pick from 1.0 for active, 0.0 for inactive

Worked cases, answers included:
1) Cc1cccc(/C=N\NC(=S)N2CCCCC2)n1 : 1.0
2) Nc1ccc(C(=O)N/C(=C\c2cccc([N+](=O)[O-])c2)c2nc3ccccc3[nH]2)cc1 : 0.0
3) COC(=O)Nc1nc2cc(S(=O)(=O)N3CCOCC3)ccc2[nH]1 : 0.0
4) CCOC(=O)c1nc2cc(C(F)(F)F)ccc2nc1Nc1ccc(Cl)c(Cl)c1 : 0.0
5) O=[N+]([O-])C1C2C=CC(C2)[C@H]1c1ccccc1Cl (some centres undefined) : 0.0
6) Cc1ccc([N+](=O)[O-])cc1S(=O)(=O)Nc1ccc(C2=NN(S(=O)(=O)c3cc([N+](=O)[O-])ccc3C)C(c3ccco3)C2)cc1 (centres undefined) : 0.0

Exam item: Short answer needed: outcome of this test for O=S(=O)(c1ccccc1)[C@H]1[C@@H]2O[C@@H]2C[C@@H]1O ?
Marked response: 0.0

Exam item: Short answer needed: outcome of this test for OCC1OC(NO)C(O)C(O)C1O (centres undefined) ?
Marked response: 0.0

Exam item: Short answer needed: outcome of this test for CC(C)(C)N1C(C(=O)c2ccccc2)C1c1ccccc1 (centres undefined) ?
Marked response: 0.0

###

system: OVCAR-3; test: NCI tumour cell line growth inhibition, 48 h
Calls of active or inactive are those of the source. Rule as the data show it: active = GI50 up to about 1.1 µM and inactive = higher.
Form entry, call: pick from t for active, f for inactive

1) O=C1CC(=O)c2c(O)cc(O)c(c2O)-c2c(ccc(O)c2O)C2=CC(=O)c3c(O)cc(O)c(c3O2)-c2c1ccc(O)c2O.O=C1CC2(O)Oc3c1c(O)cc(O)c3-c1c(ccc(O)c1O)-c1cc(=O)c3c(O)cc(O)c(c3o1)-c1c2ccc(O)c1O : f
2) COc1cc2c(cc1O)[C@H](C)C(c1ccc(Cl)cc1)O2 (stereo not given in full) : f
3) O=C(O)CCN(CCCN(CCC(=O)O)CCC(=O)O)CCC(=O)O : f
4) Cc1ccc2nc(N/N=C/c3cccc(C)n3)cc(C)c2c1 : f
5) Nc1cc2c3c(cccc3c1)C(=O)N(c1ccc(OCCN3CCCC3)cc1)C2=O : f

Exam item: Short answer needed: outcome of this test for COc1ccc(C2=NN(c3ccccc3)C[N+](c3ccc(OC)cc3)=N2)cc1 ?
Marked response: f

Exam item: Short answer needed: outcome of this test for COc1ccc2c(c1)[n+]([O-])c(-c1ccccc1)c(N)[n+]2[O-] ?
Marked response: f

Exam item: Short answer needed: outcome of this test for O=S(=O)(O)c1ccc2c(/N=N/c3ccccc3)c(O)ccc2c1 ?
Marked response: f

Exam item: Short answer needed: outcome of this test for COc1ccccc1C1(c2c(OC)c(=O)c2=O)SCCCS1 ?
Marked response: f

Exam item: Short answer needed: outcome of this test for N#CCCN(CCCN(CCCN(C(=O)Nc1ccccc1)c1ccccc1)C(=O)Nc1ccccc1)C(=O)Nc1ccccc1 ?
Marked response: f

Exam item: Short answer needed: outcome of this test for COc1cccc(C=O)c1C(=O)c1cc(O)ccc1O ?
Marked response: f

Exam item: Short answer needed: outcome of this test for CCCn1c(=O)c(N2CCN(c3ccccc3)CC2)nc2sc3ccccc3c21 ?
Marked response: f

Exam item: Short answer needed: outcome of this test for Cc1ccc(-c2c(N)[n+]([O-])c3ccccc3[n+]2[O-])cc1 ?
Marked response: f

Exam item: Short answer needed: outcome of this test for O=C1C(=C2SC(c3ccccc3)(c3ccccc3)c3ccccc32)C(=O)c2ccccc21 ?
Marked response: f

Exam item: Short answer needed: outcome of this test for COC(=O)C(=O)C1(CCC(C)=O)c2ccccc2-c2c(C)ccc(C)c21 (stereo not given) ?
Marked response: f

Exam item: Short answer needed: outcome of this test for O=C1C([N-]S(=O)(=O)c2ccccc2)=C([n+]2ccc(Cc3ccccc3)cc2)C(=O)c2ccccc21 ?
Marked response: t

Exam item: Short answer needed: outcome of this test for CC(C)CC(Nc1c(O)ccc2ccccc12)C(=O)O (stereo not given) ?
Marked response: f

Exam item: Short answer needed: outcome of this test for O=C(NCCNCCO)N/N=C/c1ccc(Cl)cc1 ?
Marked response: f

Exam item: Short answer needed: outcome of this test for NC(=O)CO/N=C1/C(=C2/C(=O)Nc3ccccc32)Nc2ccccc21 ?
Marked response: f

Exam item: Short answer needed: outcome of this test for COC(=O)C1CC2C=CC=CC(=O)C2(C)C1 (stereo not given) ?
Marked response: f

# credit: ChEMBL document CHEMBL1201862
